Experiment: In vitro biodegradation control: hydrolysis in phosphate buffered saline (PBS), pH 7.4
Format: physicochemical
Conditions: read-out: substance hydrolysed in PBS
endpoint label: degraded at 6 h (%)
Numeric answer only, unit % assumed.

Query CCOC(=O)OC(C)OC(=O)c1c(I)c(NC(C)=O)c(I)c(N(C)C(C)=O)c1I (stereo not shown) yields degraded at 6 h of 1.1

* * *

Test: In vitro biodegradation: hydrolysis with release of Isopaque in Seronorm, pH 7.4, 37° C (HPLC)
Format: in vitro ADME
Settings: seronorm serum, Seronorm (0.5 mg/ml), read-out: substance hydrolysed after 6 hours in Seronorm
endpoint label: metabolised at 6 h (%)
Numeric answer only, unit % assumed.

Query CCOC(=O)OC(C)OC(=O)c1c(I)c(NC(C)=O)c(I)c(N(C)C(C)=O)c1I (stereo not shown) yields metabolised at 6 h of 100
